ASSAYED TARGET: resolved E1 (Escherichia coli)
Construct: made in house; host or cells: resolved from PDHc expressed in E. coli JRG1342
EXPERIMENT NOTES: Inactivation of resolved E1 component (activity after reconstitution with E2-E3 subcomplex)
Type: biochemical, E. coli
EXPERIMENTAL CONDITIONS: dissociation constant for initial reversible complex
Protocol: Resolution of the E1 component from PDHc. […] PDHc was dialyzed against 50 mM Tris buffer, pH 9.0, containing 0.1 mM benzamidine.HCl, 0.15 M NaCl, 0.1 mM PMSF for 2 h, before applying to a column equilibrated and eluted with the same buffer. […] One unit of activity is defined as the amount of NADH produced (μmol) per min per mg protein. The activity of resolved E1 was measured after reconstitution with excess E2-E3 subcomplex using the NADH assay for PDHc activity. […]
MEASURED METRIC: Ki (µM)
Write the value in µM as a bare number.

For the record `C#CC(=O)C(=O)O` , what value of Ki is listed for resolved E1 (Escherichia coli)?
8.5

* * *

ASSAYED TARGET: Pyruvate decarboxylase from Saccharomyces cerevisiae (Saccharomyces cerevisiae)
Construct: made in house; host or cells: E. coli
EXPERIMENT NOTES: Inactivation of pyruvate decarboxylase (PDC)
Format: biochemical
EXPERIMENTAL CONDITIONS: PDC; read-out: Ki
Ki by entry:
Field: numeric (µM). Do not append units.

{"MOLECULE": "C#CC(=O)C(=O)O", "UNIT SPEC": "µM", "OBSERVED VALUE": 1100}

Query (molecule): O=C(O)C(=O)/C=C/c1ccc(Cl)cc1 [reference compound] ; field requested: Ki
700

* * *

ASSAYED TARGET: Pyruvate decarboxylase from Saccharomyces cerevisiae (Saccharomyces cerevisiae, UniProt P06169)
Construct: made in house; host or cells: E. coli
Sequence (P06169 2-563 limits assumed): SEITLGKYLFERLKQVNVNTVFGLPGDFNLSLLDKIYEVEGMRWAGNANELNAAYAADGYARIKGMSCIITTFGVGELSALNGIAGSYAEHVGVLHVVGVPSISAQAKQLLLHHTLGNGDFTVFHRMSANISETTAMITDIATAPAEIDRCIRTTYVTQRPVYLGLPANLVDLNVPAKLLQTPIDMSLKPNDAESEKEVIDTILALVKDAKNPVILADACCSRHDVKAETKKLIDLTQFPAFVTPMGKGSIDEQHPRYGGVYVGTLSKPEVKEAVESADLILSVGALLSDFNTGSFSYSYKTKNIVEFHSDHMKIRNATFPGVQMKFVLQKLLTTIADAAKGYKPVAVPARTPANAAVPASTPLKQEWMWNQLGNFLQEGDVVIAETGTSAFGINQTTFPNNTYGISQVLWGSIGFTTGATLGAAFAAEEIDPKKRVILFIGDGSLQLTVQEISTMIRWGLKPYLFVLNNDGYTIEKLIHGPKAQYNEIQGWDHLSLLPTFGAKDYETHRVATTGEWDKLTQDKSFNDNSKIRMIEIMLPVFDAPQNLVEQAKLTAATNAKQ
EXPERIMENT NOTES: Inactivation of pyruvate decarboxylase (PDC)
Type: biochemical
EXPERIMENTAL CONDITIONS: PDC, regulatory site; read-out: Ki,r
MEASURED METRIC: Ki (µM)
Just the number in µM, nothing appended.

Could you share which Ki value was measured for `CCCC#CC(=O)C(=O)O` ?
921

* * *

ASSAYED TARGET: Pyruvate decarboxylase from Saccharomyces cerevisiae (Saccharomyces cerevisiae, UniProt P06169)
Construct: made in house; host or cells: E. coli
EXPERIMENT NOTES: Inactivation of pyruvate decarboxylase (PDC)
Type: biochemical
EXPERIMENTAL CONDITIONS: PDC, catalytic site; read-out: Ki,c
MEASURED METRIC: Ki
Don't forget the unit after the number, please.

{"COMPOUND SMILES": "CCCC#CC(=O)C(=O)O", "Ki": "447 µM"}

Kindly review the next molecule as well.
Param item = `C#CC(=O)C(=O)O` ; retrieve measured Ki.
2110 µM
